Items are presented alongside their recorded pIC50.
- target of assay: BRD4-BD1 (Homo sapiens (Human), UniProt O60885)
- method notes: BRD4-H4 Tetraacetylated Peptide Inhibition AlphaScreen
- settings: GST-BRD4-BD1 (aa 44-168), biotinylated Acetyl-Histone H4 peptide
pIC50: −log10 of the molar value.
parameter measured: pIC50

>>> test_result("Cc1cc(-c2nc3ccc(C(C)C)cc3n2[C@@H](C)c2ccccn2)cn(C)c1=O")
6.74
>>> test_result("Cc1cc(-c2nc3cc(Cl)cnc3n2Cc2ccccc2)cn(C)c1=O")
6.73
>>> test_result("COc1ccc2nc(-c3cc(C)c(=O)n(C)c3)n(Cc3ccccc3)c2c1")
7.36
>>> test_result("Cc1cc(-c2nc3cnccc3n2Cc2ccccc2F)cn(C)c1=O")
6.89
>>> test_result("Cc1cc(-c2nc3cccnc3n2Cc2ccccc2)cn(C)c1=O")
7.35
